Data origin, for the record: paper PMC10080127

# procedure_text: Metabolic stability (substrate depletion) in human liver microsome Phase I incubations
# reported_conditions: HLM incubations; scaled with 45 mg microsomal protein/g liver and 26 g liver/kg b.w.
test_readout: intrinsic clearance (CLint) (mLmin^−1 kg^−1)

compound: CC(C)NC(C)C(=O)c1ccc(Cl)cc1 (stereo not drawn) [4-CIC, 4′-chloro-N-isopropylcathinone]
test_readout: intrinsic clearance (CLint)
result_units: mLmin^−1 kg^−1
observed_measurement: 22

compound: CC(C)NC(C)C(=O)c1cccc(Cl)c1 (stereo not drawn) [3-CIC, 3′-chloro-N-isopropylcathinone]
test_readout: intrinsic clearance (CLint)
result_units: mLmin^−1 kg^−1
observed_measurement: 34

compound: CCCC(C(=O)c1ccc(C)cc1)N(C)C (stereo not drawn) [4-MDMP, 4′-methyl-N,N-dimethylpentedrone]
test_readout: intrinsic clearance (CLint)
result_units: mLmin^−1 kg^−1
observed_measurement: 18
